I'd appreciate it if you could supply pEC50 values for the items below.
# Test system: INS-1E cells
# test.name: Cellular ATP levels (CellTiter-Glo) in cytokine-treated INS-1E cells; suppression of cytokine-induced beta-cell apoptosis
# Assay type: cell-based, rat
# protocol.conditions: Rattus norvegicus; INS-1E cells, cytokines IL-1β, IFN-γ, TNF-α, 48 h, CellTiter-Glo; read-out: CTG EC50 in HTS
pEC50: −log10 of the molar value.

Give its pEC50 value. Item: C[C@@H]1CN([C@@H](C)CO)C(=O)c2cccc(NC(=O)Nc3ccc(F)cc3)c2O[C@H]1CN(C)S(=O)(=O)c1ccc(Cl)cc1 [Compound 30A]
< 4.60

Give its pEC50 value. Item: Cc1ccc(S(=O)(=O)N(C)C[C@@H]2Oc3c(NC(=O)Nc4cccc5ccccc45)cccc3C(=O)N([C@@H](C)CO)C[C@H]2C)cc1 [Compound 2A]
< 5.00

Give its pEC50 value. Item: COc1ccc(S(=O)(=O)N(C)C[C@@H]2Oc3c(NC(=O)Nc4cccc5ccccc45)cccc3C(=O)N([C@@H](C)CO)C[C@H]2C)cc1C [Compound 20A]
< 7.00

Give its pEC50 value. Item: C[C@@H]1CN([C@@H](C)CO)C(=O)c2cccc(NC(=O)Nc3cccc4ccccc34)c2O[C@H]1CN(C)S(=O)(=O)c1ccc2c(c1)OCCO2 [Compound 21A]
< 7.00

Give its pEC50 value. Item: COc1ccc(S(=O)(=O)N(C)C[C@@H]2Oc3c(NC(=O)Nc4cccc5ccccc45)cccc3C(=O)N([C@@H](C)CO)C[C@H]2C)cc1 [Compound 1A]
< 7.00

Give its pEC50 value. Item: COc1ccc(S(=O)(=O)N(C)C[C@@H]2Oc3c(NC(=O)Nc4cccc(Cl)c4Cl)cccc3C(=O)N([C@@H](C)CO)C[C@H]2C)cc1 [Compound 32A]
< 4.70

Give its pEC50 value. Item: Cc1ccc(S(=O)(=O)N(C)C[C@@H]2Oc3c(NC(=O)Nc4cccc5c4ccn5C)cccc3C(=O)N([C@@H](C)CO)C[C@H]2C)cc1 [Compound 3A]
< 4.60
